- assayed system: cysteines in MDA-MB-231 and Ramos cells (Homo sapiens, UniProt P52597)
- Sequence (P52597 1-415): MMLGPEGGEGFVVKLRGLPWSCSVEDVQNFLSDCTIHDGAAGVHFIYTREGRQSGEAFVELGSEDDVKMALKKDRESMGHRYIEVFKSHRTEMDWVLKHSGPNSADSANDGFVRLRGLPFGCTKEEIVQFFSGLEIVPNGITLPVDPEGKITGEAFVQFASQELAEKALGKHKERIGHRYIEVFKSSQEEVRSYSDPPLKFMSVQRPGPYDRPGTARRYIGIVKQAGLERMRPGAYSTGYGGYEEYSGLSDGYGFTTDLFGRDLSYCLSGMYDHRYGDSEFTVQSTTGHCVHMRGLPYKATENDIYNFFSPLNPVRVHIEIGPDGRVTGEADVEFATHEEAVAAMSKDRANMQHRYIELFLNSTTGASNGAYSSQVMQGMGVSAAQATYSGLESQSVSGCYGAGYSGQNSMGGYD
- measurement description: Competitive isoTOP-ABPP in situ (fragment-treated cells)
- Assay type: cell-based
- test context: 200 μM, insitu, 231
measured quantity: isoTOP-ABPP ratio P52597_C267
Answer with a bare number; do not write a unit.

The examples below pair each entry with its known result.
INSERT INTO assay_data (molecule, measured_quantity, numeric_value) VALUES
  ('Cc1ccc(C=C(C#N)C(=O)NCCN2CCOCC2)cc1', 'isoTOP-ABPP ratio P52597_C267', 0.8),
  ('CC(C)CCOCCNC(=O)CCl', 'isoTOP-ABPP ratio P52597_C267', 1.0),
  ('C=CC(=O)Nc1cc(F)c(N2CCN(C(=O)OC(C)(C)C)CC2)c(F)c1', 'isoTOP-ABPP ratio P52597_C267', 1.8);

Give its isoTOP-ABPP ratio P52597_C267 value. Item: O=C(CCl)N1CCN(S(=O)(=O)c2ccccc2F)CC1
2.5

Give its isoTOP-ABPP ratio P52597_C267 value. Item: O=C(CCl)Nc1cccc2ncccc12
1.3

Give its isoTOP-ABPP ratio P52597_C267 value. Item: O=C(CCl)NCCc1c[nH]c2ccccc12
1.2

Give its isoTOP-ABPP ratio P52597_C267 value. Item: C=CC(=O)N(Cc1cccnc1)c1cc(C(F)(F)F)cc(C(F)(F)F)c1
1.2

Give its isoTOP-ABPP ratio P52597_C267 value. Item: CC1CCc2ccccc2N1C(=O)CCl (stereo not shown)
4.1

Give its isoTOP-ABPP ratio P52597_C267 value. Item: O=C(CCl)NC(=O)NC12CC3CC(CC(C3)C1)C2
6.8

Give its isoTOP-ABPP ratio P52597_C267 value. Item: O=C(CCl)NC12CC3CC(CC(C3)C1)C2
1.5
